Tested on: Klebsiella 6179
Provide the reported MIC of each item.
One number for each entry, in µg/mL.

Consider the reported MIC for these compounds:
- Molecular string: "O=C(CN1CCN(c2cc3c(cc2F)c(=O)c(C(=O)O)cn3C2CC2)CC1)c1ccccc1"
  Reported measurement: 0.5
- Molecular string: "CC(=O)CCN1CCN(c2cc3c(cc2F)c(=O)c(C(=O)O)cn3C2CC2)CC1"
  Reported measurement: 0.25

Lab note: each compound below needs its MIC filled in.
1. O=C(CN1CCN(c2cc3c(cc2F)c(=O)c(C(=O)O)cn3C2CC2)CC1)c1ccc(Cl)cc1
2. O=C(CN1CCN(c2cc3c(cc2F)c(=O)c(C(=O)O)cn3C2CC2)CC1)c1ccc(F)cc1
3. CC(=O)CN1CCN(c2cc3c(cc2F)c(=O)c(C(=O)O)cn3C2CC2)CC1

**A:**
1: 1; 2: 0.25; 3: 2

// data source = patent US4547503A
